Molecular target: T1, human Claudin 3 (human, UniProt O15551 1-220)
T1 construct: forced expression in DG44 or Ba/F3 cells, or endogenous on MCF7 cells; four-transmembrane tight junction protein; also called hCLDN3; hCLN3
T1 sequence: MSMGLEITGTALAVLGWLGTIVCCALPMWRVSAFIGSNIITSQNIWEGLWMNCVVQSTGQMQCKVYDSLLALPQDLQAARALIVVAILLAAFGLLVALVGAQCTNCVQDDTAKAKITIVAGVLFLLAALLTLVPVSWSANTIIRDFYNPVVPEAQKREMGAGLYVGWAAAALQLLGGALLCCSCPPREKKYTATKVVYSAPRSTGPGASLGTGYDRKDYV
Assay: flow cytometry, hCLDN3/DG44 cells, 0.1 ug/mL antibody
measurement-name: X geometric mean
Answers are plain numbers.

>>> numeric_value("CDN04 (antibody, mouse IgG1, kappa, V domains shown, mouse monoclonal, IgG1/IgK; also called CDN4) VH: EVQLQQSGPELVKPGASMKISCKASGYSFTGYTMNWMKQGHGKNLEWIGLINPYNGGTSYNQKFKDKATLTLDKSSSSAYMELLSLTSEDSAVYYCARGSYGSSYFDYWGQGTTLTVSS VL: DIVMSQSPSSLAVSVGEKVTMSCKSSQSLLYGSNQKNYLAWYQQKPGQSPKLLIYWASTRESGVPDRFTGSGSGTDFTLTISSVKAEDLAVYYCQQYYNFPYTFGGGTKLEIKR")
28
>>> numeric_value("CDN35 (antibody, V domains shown, mouse monoclonal, IgG2a/IgK) VH: EVQLQQSGPELVKPGASVKMSCKASGYTFTDYYMNWVKQSHGKSLEWIGRVNPSNGGTSYNQKFKGKATLTVDKSLSTAYMQLNSLTSEDSAVYYCARGLAYYSNSFTYWGQGTLVTVSA VL: KIVLTQSPASLAVSLRQRATISCRASESVDSYGNSFMHWYQQKPGQPPKLLIYRASNLESGVPARFSGSGSRTDFTLTIDPVEADDAATYYCQQNNEDPWTFGGGTKLEIKR")
120

Switching to the query record.
# get_value(readout='X geometric mean', item= CDN38 (antibody, V domains shown) VH: EVQLQQSGPELVKPGASVKMSCKASGYSFTGYFMNWVKQSHGKSLEWIGRINPYNGDTFYNQKFKGKATLTVDKSSSTAHMELRSLTSEDSALYYCARSGNYVMDYWGQGTSVTVSS VL: DIVLTQSPASLAVSLGQSVTISCRASESVEYYGTSLMQWYQQKPGQPPKLLIYGASNVESGVPARFSGSGSGTDFSLNIHPVEEDDIAMYFCQQSRKVPWTFGGGTKLEIKR )
207
